Molecular target: acetylcholine receptor
Experiment: SPR, AchR on chip, peptide 10 uM
Answer each item with its documented Binding affinity (RU).
Give bare numbers, in RU.

Some binders with recorded Binding affinity (RU):
binder	Binding affinity (RU)
RQYCR [5mer-234]	62
KLFLR [5mer-5]	54
KGISK [5mer-346]	57

Give Binding affinity (RU) for all binders that follow.
1. KSVSK [5mer-244]
2. KSFTR [5mer-246]
3. RVFLR [5mer-12]
4. RRILK [5mer-302]
5. RWQQK [5mer-6]
6. RLYYR [5mer-211]

Data returned:
[78, 60, 70, 70, 61, 73]
